Entries and their measured IC50 follow.
# tested_on: KRas^G12R (Homo sapiens, UniProt P01116, G12R)
# Construct: Biotinylated KRas (corresponding to amino acids 1-169, produced at Accelegan Inc.); biotin (biotinylated); purchased Accelegan Inc
# Sequence (P01116 1-169 isoform P01116-2 G12R): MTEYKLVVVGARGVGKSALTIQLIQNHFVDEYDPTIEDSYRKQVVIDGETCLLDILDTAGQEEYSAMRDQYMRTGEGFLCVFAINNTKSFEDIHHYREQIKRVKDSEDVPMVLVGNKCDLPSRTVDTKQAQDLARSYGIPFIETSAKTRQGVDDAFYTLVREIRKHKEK
# assay_details: KRas binding assay (TR-FRET tracer displacement), KRas G12R
Enter your answer as a number in nM; do not include the unit.

- CCc1c(F)ccc2cc(O)cc(-c3ncc4c(N5CCCC6(CCC6)C5)nc(OC[C@@]56CCCN5C[C@H](F)C6)nc4c3F)c12: 8

Query string: // lookup IC50 for CCc1c(F)ccc2cc(O)cc(-c3ncc4c(N5CCC(N6C(=O)OC7CNCC76)CC5)nc(OC[C@@]56CCCN5C[C@H](F)C6)nc4c3F)c12 (stereo partly drawn)
Result string: 1610

Query string: Given the molecule CCc1c(F)ccc2cc(O)cc(-c3ncc4c(NC5CCCc6c(C(=O)N(C)C)nn(C)c65)nc(OC[C@@]56CCCN5C[C@H](F)C6)nc4c3F)c12 (stereo partly drawn) , what is its reported IC50?
Result string: 4

Query string: Bench note: what IC50 did CCc1c(F)ccc2cc(O)cc(-c3ncc4c(N5CC6COCC(CO)(C5)C6(F)F)nc(OC[C@@]56CCCN5C[C@H](F)C6)nc4c3F)c12 (stereo partly drawn) show?
Result string: 257
